Sourced from patent US20110251220A1

test: Physiological compatibility, parenteral administration in mice; conditions: in vivo, other: parenteral, mouse
readoutKind: LD50 (mg/kg)

>>> print(df.to_string())
                               samplesmiles  readoutkind  unittext  reportedmeasurement
0  CC(C)c1ccc(S(=O)(=O)Nc2cccnc2Oc2ccc(Cl)cc2)cc1         LD50     mg/kg                  800
